# experimentalTarget: MKP-1 (Homo sapiens)
# assayProcedure: biochemical
# statedConditions: read-out: MKP-1 + 1 mM DTT % inhibition at 50 μM
Measured inhibition at 50 µM accompanies every entry in the list below.
measuredProperty: inhibition at 50 µM (%)

smi: CCCCn1c(NC(=O)c2ccccc2)c(C#N)c2nc3ccccc3nc21
experimentalTarget: MKP-1 (Homo sapiens)
measuredProperty: inhibition at 50 µM
unitAbbrev: %
measuredNumber: 79.9
//
smi: CCn1nc(-c2cccs2)nc2c(=O)n(C)c(=O)nc1-2
experimentalTarget: MKP-1 (Homo sapiens)
measuredProperty: inhibition at 50 µM
unitAbbrev: %
measuredNumber: 94.4
//
smi: Cn1ncnc2c(=O)n(C)c(=O)nc1-2
experimentalTarget: MKP-1 (Homo sapiens)
measuredProperty: inhibition at 50 µM
unitAbbrev: %
measuredNumber: 94.4
//
smi: N#Cc1c(N)sc(=S)c2c1CCN(Cc1ccccc1)C2
experimentalTarget: MKP-1 (Homo sapiens)
measuredProperty: inhibition at 50 µM
unitAbbrev: %
measuredNumber: 95.2
//
smi: CCn1nc(-c2ccccc2)nc2c(=O)n(C)c(=O)nc1-2
experimentalTarget: MKP-1 (Homo sapiens)
measuredProperty: inhibition at 50 µM
unitAbbrev: %
measuredNumber: 95.6

* * *

# experimentalTarget: MKP-1 (Homo sapiens)
# Sequence (P28562 1-367): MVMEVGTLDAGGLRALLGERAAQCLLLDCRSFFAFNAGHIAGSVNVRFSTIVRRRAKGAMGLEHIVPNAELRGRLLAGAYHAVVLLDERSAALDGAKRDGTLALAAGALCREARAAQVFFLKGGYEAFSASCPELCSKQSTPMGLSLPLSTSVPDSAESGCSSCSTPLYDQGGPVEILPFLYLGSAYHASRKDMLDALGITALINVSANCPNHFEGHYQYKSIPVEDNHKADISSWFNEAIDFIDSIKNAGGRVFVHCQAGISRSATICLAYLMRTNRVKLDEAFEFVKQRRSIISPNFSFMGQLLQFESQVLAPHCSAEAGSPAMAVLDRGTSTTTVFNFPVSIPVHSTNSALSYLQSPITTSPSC
# assayProcedure: biochemical
# statedConditions: MKP-1 + 25 mM DTT IC50, 25 mM DTT
pIC50: −log10 of the molar value.
pIC50: recorded values
measuredProperty: pIC50

compound: CCCCn1c(NC(=O)c2ccccc2)c(C#N)c2nc3ccccc3nc21 [compound 3712327]
readingQualifier: <
measuredNumber: 4.30

compound: CCn1nc(-c2cccs2)nc2c(=O)n(C)c(=O)nc1-2 [compound 850758]
readingQualifier: =
measuredNumber: 5.35

compound: Cn1ncnc2c(=O)n(C)c(=O)nc1-2 [compound 4251194]
readingQualifier: =
measuredNumber: 5.25

compound: CCn1nc(-c2ccccc2)nc2c(=O)n(C)c(=O)nc1-2 [compound 845167]
readingQualifier: =
measuredNumber: 5.31

compound: N#Cc1c(N)sc(=S)c2c1CCN(Cc1ccccc1)C2 [compound 845964]
readingQualifier: <
measuredNumber: 4.30

* * *

# experimentalTarget: MKP-1 (Homo sapiens)
# assayProcedure: biochemical
# statedConditions: read-out: MKP-1 + 1 mM DTT + catalase % inhibition at 50 μM
Classification field: label 1 = inhibition at 50 µM at or over 50%; label 0 = inhibition at 50 µM under 50%.

smi: CCCCn1c(NC(=O)c2ccccc2)c(C#N)c2nc3ccccc3nc21
labelClass: label 1
//
smi: CCn1nc(-c2cccs2)nc2c(=O)n(C)c(=O)nc1-2
labelClass: label 0
//
smi: N#Cc1c(N)sc(=S)c2c1CCN(Cc1ccccc1)C2
labelClass: label 0
//
smi: Cn1ncnc2c(=O)n(C)c(=O)nc1-2
labelClass: label 0
//
smi: CCn1nc(-c2ccccc2)nc2c(=O)n(C)c(=O)nc1-2
labelClass: label 0
